assay-method-text: In vivo pharmacokinetic analysis of UBMC-4 in mice (HPLC plasma, two-compartment model)
Parameters: species or system Balb/c Mus musculus
condition-info: both sexes, Balb/c, mouse, plasma, 200 mg/kg oral single dose, 8 h
measured-endpoint: concentration at 8 h
State the value with its unit after it.

Quick one: concentration at 8 h of Oc1ccc(-c2nc(-c3ccc4sc5ccccc5c4c3)c(-c3ccccc3)[nH]2)cc1 ? 3600 ng/mL

====

assay-method-text: In vivo pharmacokinetic analysis of UBMC-4 in mice (HPLC plasma, two-compartment model)
Set-up: species or system Balb/c Mus musculus
condition-info: both sexes, Balb/c, mouse, plasma, 200 mg/kg oral single dose, 0 h
measured-endpoint: concentration at 0 h (ng/mL)
Answers are plain numbers, in ng/mL.

Quick one: concentration at 0 h of Oc1ccc(-c2nc(-c3ccc4sc5ccccc5c4c3)c(-c3ccccc3)[nH]2)cc1 [UBMC-4] ? 0

====

assay-method-text: Cytotoxicity, MTT method, CaCo2
Type: cell-based
condition-info: human, Caco-2, read-out: LC50 median lethal concentration CaCo2
Consider the following compounds; for each one, report its CC50 at 72 h.

>  <compound>
Oc1ccc(-c2nc(-c3ccc4sc5ccccc5c4c3)c(-c3ccccc3)[nH]2)cc1 [UBMC-4]

>  <CC50 at 72 h>
> 40 µM

$$$$

Quick one: CC50 at 72 h of O=C(Cn1ccnc1[N+](=O)[O-])NCc1ccccc1 [Benznidazole, benznidazole, reference compound] ? > 760 µM

====

assay-method-text: In vivo pharmacokinetic analysis of UBMC-4 in mice (HPLC plasma, two-compartment model)
Set-up: species or system Balb/c Mus musculus
condition-info: both sexes, Balb/c, mouse, plasma, 200 mg/kg oral single dose, 2 h
measured-endpoint: concentration at 2 h (ng/mL)
Numbers only, in ng/mL.

Quick one: concentration at 2 h of Oc1ccc(-c2nc(-c3ccc4sc5ccccc5c4c3)c(-c3ccccc3)[nH]2)cc1 [UBMC-4] ? 3200

====

assay-method-text: In vivo pharmacokinetic analysis of UBMC-4 in mice (HPLC plasma, two-compartment model)
Parameters: species or system Balb/c Mus musculus
condition-info: both sexes, Balb/c, mouse, plasma, 200 mg/kg oral single dose, 5 h
measured-endpoint: concentration at 5 h (µg/mL)
Numbers only, in µg/mL.

Quick one: concentration at 5 h of Oc1ccc(-c2nc(-c3ccc4sc5ccccc5c4c3)c(-c3ccccc3)[nH]2)cc1 ? 3.8

====

assay-method-text: In vivo pharmacokinetic analysis of UBMC-4 in mice (HPLC plasma, two-compartment model)
Set-up: species or system Balb/c Mus musculus
condition-info: both sexes, Balb/c, mouse, plasma, 200 mg/kg oral single dose, 3 h
measured-endpoint: concentration at 3 h (ng/mL)
Answers are plain numbers, in ng/mL.

Quick one: concentration at 3 h of Oc1ccc(-c2nc(-c3ccc4sc5ccccc5c4c3)c(-c3ccccc3)[nH]2)cc1 ? 4200

====

assay-method-text: In vivo pharmacokinetic analysis of UBMC-4 in mice (HPLC plasma, two-compartment model)
Parameters: species or system Balb/c Mus musculus
condition-info: both sexes, Balb/c, mouse, plasma, two-compartment model, 200 mg/kg oral, read-out: estimated half-life (t1/2) (converted)
measured-endpoint: half-life (h)
Numbers only, in h.

Quick one: half-life of Oc1ccc(-c2nc(-c3ccc4sc5ccccc5c4c3)c(-c3ccccc3)[nH]2)cc1 ? 22.4

====

assay-method-text: Cytotoxicity, MTT method, huMDM
Format: cell-based
condition-info: human, monocyte-derived macrophages (huMDM), read-out: LC50 median lethal concentration huMDM
Description: Cytotoxicity of UBMC-4 was tested in HepG2, CaCo2, and huMDM cell lines according to the effect on cell growth determined by the MTT microenzimatic method, as described by others. […] The concentration of formazan was determined at 570 nm in a spectrophotometer (Varioskan Flash Multimode Reader, Thermo Scientific, Waltham, MA, USA). […] Cytotoxicity was determined according to the percentages of viability and cell growth inhibition obtained for each compound, bz, doxorubicin, or medium alone. […]
measured-endpoint: CC50 at 72 h

>  <compound>
Oc1ccc(-c2nc(-c3ccc4sc5ccccc5c4c3)c(-c3ccccc3)[nH]2)cc1

>  <CC50 at 72 h>
> 40 µM

$$$$

Quick one: CC50 at 72 h of O=C(Cn1ccnc1[N+](=O)[O-])NCc1ccccc1 [Benznidazole, benznidazole, reference compound] ? > 760 µM

====

assay-method-text: In vivo pharmacokinetic analysis of UBMC-4 in mice (HPLC plasma, two-compartment model)
Parameters: species or system Balb/c Mus musculus
condition-info: both sexes, Balb/c, mouse, plasma, 200 mg/kg oral single dose, 6 h
measured-endpoint: concentration at 6 h (ng/mL)
Give bare numbers, in ng/mL.

Quick one: concentration at 6 h of Oc1ccc(-c2nc(-c3ccc4sc5ccccc5c4c3)c(-c3ccccc3)[nH]2)cc1 ? 3700
